- tested target: tyrosyl-DNA phosphodiesterase 1 (Tdp1) (Homo sapiens, UniProt Q9NUW8 1-608)
- Sequence (Q9NUW8 whole entry): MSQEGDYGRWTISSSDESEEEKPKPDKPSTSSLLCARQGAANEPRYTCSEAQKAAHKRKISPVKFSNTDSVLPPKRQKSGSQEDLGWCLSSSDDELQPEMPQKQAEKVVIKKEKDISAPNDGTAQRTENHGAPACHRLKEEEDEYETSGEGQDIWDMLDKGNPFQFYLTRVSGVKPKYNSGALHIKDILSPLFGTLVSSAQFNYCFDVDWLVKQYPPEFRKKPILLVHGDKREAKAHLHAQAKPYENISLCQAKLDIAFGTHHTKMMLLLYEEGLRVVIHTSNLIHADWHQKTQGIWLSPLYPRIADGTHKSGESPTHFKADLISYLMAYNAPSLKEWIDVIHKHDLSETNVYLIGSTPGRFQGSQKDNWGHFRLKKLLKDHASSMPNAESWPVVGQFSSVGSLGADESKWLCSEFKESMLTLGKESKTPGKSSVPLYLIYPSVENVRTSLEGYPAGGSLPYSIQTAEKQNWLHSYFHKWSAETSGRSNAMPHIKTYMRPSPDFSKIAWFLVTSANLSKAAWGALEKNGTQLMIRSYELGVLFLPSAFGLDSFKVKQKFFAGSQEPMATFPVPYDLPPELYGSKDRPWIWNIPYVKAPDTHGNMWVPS
- experiment: SPR
readout type: Kd (nM)
Give the value, in units of nM, as a plain number.

Asked: Could you please provide reported Kd for GATCTAAAAGACTT (ssDNA, 5'-biotin; 3'-phosphate) [B14p] ? Thanks!
Given back: 57
